Readings of Predicted vs Actual for the listed molecules
- Tested on: Staphylococcus aureus
- protocol: Microbicidal activity of the myeloperoxidase system (p-MPO, glucose oxidase, glucose) with amino acids in the presence of blood, CFU plate counts; synergy determination from these CFU
- Format: cell-based
- condition_details: actual CFU as % of predicted value
metric: Predicted vs Actual (%)

>  <molecule>
CC[C@H](C)[C@H](N)C(=O)O (racemic) [d,l-Isoleucine]

>  <tgt>
Staphylococcus aureus

>  <metric>
Predicted vs Actual

>  <val>
39

$$$$
>  <molecule>
CC(C)C(N)C(=O)O (racemic) [d,l-Valine]

>  <tgt>
Staphylococcus aureus

>  <metric>
Predicted vs Actual

>  <val>
187

$$$$
>  <molecule>
CC(C)CC(N)C(=O)O (racemic) [d,l-Leucine]

>  <tgt>
Staphylococcus aureus

>  <metric>
Predicted vs Actual

>  <val>
310

$$$$
>  <molecule>
NC(Cc1ccccc1)C(=O)O (racemic) [d,l-Phenylalanine]

>  <tgt>
Staphylococcus aureus

>  <metric>
Predicted vs Actual

>  <val>
9

$$$$

---

- Test system: Staphylococcus aureus
- protocol: Microbicidal activity of the myeloperoxidase system (p-MPO, glucose oxidase, glucose) with amino acids in the presence of blood, CFU plate counts; synergy determination from these CFU
- Assay type: cell-based
- condition_details: MPO 100 μg/mL; AA 5 mM; 60 min

>  <compound>
CC(C)[C@H](N)C(=O)O [L-Valine]

>  <tgt>
Staphylococcus aureus

>  <Log 10 (CFU + 1) Survivors>
0.0

$$$$
>  <compound>
NCC(=O)O [Glycine]

>  <tgt>
Staphylococcus aureus

>  <Log 10 (CFU + 1) Survivors>
0.0

$$$$
>  <compound>
NC(=O)CC[C@@H](N)C(=O)O [D-Glutamine]

>  <tgt>
Staphylococcus aureus

>  <Log 10 (CFU + 1) Survivors>
0.0

$$$$
>  <compound>
O=C(O)[C@@H]1CCCN1 [L-Proline]

>  <tgt>
Staphylococcus aureus

>  <Log 10 (CFU + 1) Survivors>
0.0

$$$$
>  <compound>
CC(C)C[C@H](N)C(=O)O [L-Leucine]

>  <tgt>
Staphylococcus aureus

>  <Log 10 (CFU + 1) Survivors>
0.0

$$$$
>  <compound>
COC(=O)[C@@H](C)N [D-Alanine methyl ester]

>  <tgt>
Staphylococcus aureus

>  <Log 10 (CFU + 1) Survivors>
0.0

$$$$
>  <compound>
C[C@H](O)[C@@H](N)C(=O)O [D-Threonine]

>  <tgt>
Staphylococcus aureus

>  <Log 10 (CFU + 1) Survivors>
5.1

$$$$
>  <compound>
C[C@H](N)C(=O)O [L-Alanine]

>  <tgt>
Staphylococcus aureus

>  <Log 10 (CFU + 1) Survivors>
0.0

$$$$
>  <compound>
O=C(O)[C@H]1CCCN1 [D-Proline]

>  <tgt>
Staphylococcus aureus

>  <Log 10 (CFU + 1) Survivors>
2.7

$$$$
>  <compound>
N[C@@H](Cc1c[nH]cn1)C(=O)O [L-Histidine]

>  <tgt>
Staphylococcus aureus

>  <Log 10 (CFU + 1) Survivors>
4.7

$$$$
>  <compound>
N[C@@H](Cc1ccccc1)C(=O)O [L-Phenylalanine]

>  <tgt>
Staphylococcus aureus

>  <Log 10 (CFU + 1) Survivors>
0.0

$$$$
>  <compound>
CC(C)C[C@@H](N)C(=O)O [D-Leucine]

>  <tgt>
Staphylococcus aureus

>  <Log 10 (CFU + 1) Survivors>
2.0

$$$$
>  <compound>
C[C@@H](N)C(=O)O [D-Alanine]

>  <tgt>
Staphylococcus aureus

>  <Log 10 (CFU + 1) Survivors>
0.6

$$$$
>  <compound>
O=C(O)CNC(=O)c1ccccc1 [Hippuric acid]

>  <tgt>
Staphylococcus aureus

>  <Log 10 (CFU + 1) Survivors>
5.9

$$$$
>  <compound>
NC(=O)CC[C@H](N)C(=O)O [L-Glutamine]

>  <tgt>
Staphylococcus aureus

>  <Log 10 (CFU + 1) Survivors>
0.0

$$$$
>  <compound>
N[C@@H](Cc1ccc(O)cc1)C(=O)O [L-Tyrosine]

>  <tgt>
Staphylococcus aureus

>  <Log 10 (CFU + 1) Survivors>
5.8

$$$$
>  <compound>
NCCC(=O)O [Beta alanine]

>  <tgt>
Staphylococcus aureus

>  <Log 10 (CFU + 1) Survivors>
0.0

$$$$
>  <compound>
N[C@@H](CCC(=O)O)C(=O)O [L-Glutamic acid]

>  <tgt>
Staphylococcus aureus

>  <Log 10 (CFU + 1) Survivors>
2.8

$$$$
>  <compound>
N=C(N)NCCC[C@@H](N)C(=O)O [D-Arginine]

>  <tgt>
Staphylococcus aureus

>  <Log 10 (CFU + 1) Survivors>
0.0

$$$$
>  <compound>
N[C@H](CO)C(=O)O [D-Serine]

>  <tgt>
Staphylococcus aureus

>  <Log 10 (CFU + 1) Survivors>
0.0

$$$$
>  <compound>
NCCS(=O)(=O)O [Taurine]

>  <tgt>
Staphylococcus aureus

>  <Log 10 (CFU + 1) Survivors>
5.0

$$$$
>  <compound>
CC(C)[C@@H](N)C(=O)O [D-Valine]

>  <tgt>
Staphylococcus aureus

>  <Log 10 (CFU + 1) Survivors>
0.0

$$$$

---

- Test system: Staphylococcus aureus
- protocol: Microbicidal activity of the myeloperoxidase system (p-MPO, glucose oxidase, glucose) with amino acids in the presence of blood, CFU plate counts; synergy determination from these CFU
- Type: cell-based
- condition_details: Table 13; single amino acid 2.5 mM; MPO 4.7 U/ml, GO 4.2 U/ml; in the presence of blood; 50 min

>  <compound>
N[C@H](Cc1ccccc1)C(=O)O [D-Phenylalanine]

>  <Log Reduction 50 min>
0.4

$$$$
>  <compound>
NCC(=O)O [Glycine]

>  <Log Reduction 50 min>
3.4

$$$$
>  <compound>
NCCCC[C@H](N)C(=O)O [L-Lysine]

>  <Log Reduction 50 min>
0.3

$$$$
>  <compound>
N[C@@H](Cc1c[nH]cn1)C(=O)O [L-Histidine]

>  <Log Reduction 50 min>
0.7

$$$$
>  <compound>
N[C@@H](CO)C(=O)O [L-Serine]

>  <Log Reduction 50 min>
1.5

$$$$
>  <compound>
NC(=O)CC[C@H](N)C(=O)O [L-Glutamine]

>  <Log Reduction 50 min>
0.3

$$$$
>  <compound>
O=C(O)[C@@H]1CCCN1 [L-Proline]

>  <Log Reduction 50 min>
1.2

$$$$
>  <compound>
O=C(O)[C@@H]1C[C@@H](O)CN1 [L-Hydroxyproline]

>  <Log Reduction 50 min>
0.3

$$$$
>  <compound>
C[C@H](N)C(=O)O [L-Alanine]

>  <Log Reduction 50 min>
1.0

$$$$

---

- System: Staphylococcus aureus
- protocol: Microbicidal activity of the myeloperoxidase system (p-MPO, glucose oxidase, glucose) with amino acids in the presence of blood, CFU plate counts; synergy determination from these CFU
- Assay type: cell-based
- condition_details: Table 4; amino acid 5 mM (none: 0 mM); MPO 38 U/ml; GO 33.3 U/ml; blood
Log Reduction 60 min under 2 gets criterion met, anything at or over 2 gets criterion not met.

>  <compound>
NCCC(=O)O [Beta alanine]

>  <tgt>
Staphylococcus aureus

>  <answer_label>
criterion not met

$$$$
>  <compound>
N[C@H](CCC(=O)O)C(=O)O [D-Glutamic acid]

>  <tgt>
Staphylococcus aureus

>  <answer_label>
criterion met

$$$$
>  <compound>
N[C@H](Cc1c[nH]c2ccccc12)C(=O)O [D-Tryptophan]

>  <tgt>
Staphylococcus aureus

>  <answer_label>
criterion met

$$$$
>  <compound>
O=CC(=O)O [Glyoxylic acid]

>  <tgt>
Staphylococcus aureus

>  <answer_label>
criterion met

$$$$
>  <compound>
O=C(O)[C@H]1CCCN1 [D-Proline]

>  <tgt>
Staphylococcus aureus

>  <answer_label>
criterion not met

$$$$
>  <compound>
NCCCC[C@@H](N)C(=O)O [D-Lysine]

>  <tgt>
Staphylococcus aureus

>  <answer_label>
criterion met

$$$$
>  <compound>
COC(=O)[C@H](C)N [L-Ala methyl ester, L-Alanine methyl ester]

>  <tgt>
Staphylococcus aureus

>  <answer_label>
criterion not met

$$$$
>  <compound>
CC(C)C[C@@H](N)C(=O)O [D-Leucine]

>  <tgt>
Staphylococcus aureus

>  <answer_label>
criterion not met

$$$$

---

Readings of Average Viability CFU/ml 50 min for the listed molecules
- Tested on: Staphylococcus aureus
- protocol: Microbicidal activity of the myeloperoxidase system (p-MPO, glucose oxidase, glucose) with amino acids in the presence of blood, CFU plate counts; synergy determination from these CFU
- Format: cell-based
- condition_details: single amino acid 2.5 mM; MPO 4.7 U/ml; GO 4.2 U/ml; blood

>  <input_smiles>
NCCC(=O)O

>  <units_of_measure>
CFU/ml

>  <Average Viability CFU/ml 50 min>
505000

$$$$
>  <input_smiles>
COC(=O)[C@@H](C)N

>  <units_of_measure>
CFU/ml

>  <Average Viability CFU/ml 50 min>
5450000

$$$$
>  <input_smiles>
NCC(=O)O

>  <units_of_measure>
CFU/ml

>  <Average Viability CFU/ml 50 min>
7050

$$$$
>  <input_smiles>
CC(C)[C@@H](N)C(=O)O

>  <units_of_measure>
CFU/ml

>  <Average Viability CFU/ml 50 min>
630000

$$$$
>  <input_smiles>
CC[C@H](C)[C@H](N)C(=O)O

>  <units_of_measure>
CFU/ml

>  <Average Viability CFU/ml 50 min>
73000

$$$$
>  <input_smiles>
CC[C@@H](C)[C@@H](N)C(=O)O

>  <units_of_measure>
CFU/ml

>  <Average Viability CFU/ml 50 min>
196000

$$$$
>  <input_smiles>
CC(C)C[C@H](N)C(=O)O

>  <units_of_measure>
CFU/ml

>  <Average Viability CFU/ml 50 min>
200500

$$$$
>  <input_smiles>
CC(C)[C@H](N)C(=O)O

>  <units_of_measure>
CFU/ml

>  <Average Viability CFU/ml 50 min>
104500

$$$$
